Overview of recorded GI50 for various compounds
# Test system: M14
# assay-comment: NCI tumour cell line growth inhibition, 48 h
Calls of active or inactive are those of the source. Cut-off read from the data, not from the text of the source: active = GI50 up to about 1.1 µM and inactive = higher.
observation-type: GI50

[[record]]
compound = "COc1ccc(C(C)NNC(=O)c2cc[n+]([BH2-]C#N)cc2)c(OC)c1 (stereo unspecified)"
measured_value = "> 100 µM (inactive)"

[[record]]
compound = "C=CCOC1CC(n2cnc3c(N)ncnc32)OC1CO (stereo unspecified)"
measured_value = "> 100 µM (inactive)"

[[record]]
compound = "CN1CCN(c2nc3cc(F)ccc3n3cccc23)CC1"
measured_value = "18 µM (inactive)"

[[record]]
compound = "O=C(O)C(Cl)(c1ccccc1)c1ccccc1"
measured_value = "> 100 µM (inactive)"

[[record]]
compound = "O=C1NC2C=CN(Cc3ccccc3)C=C2C(=O)N2CCCC12 (stereo unspecified)"
measured_value = "> 100 µM (inactive)"

[[record]]
compound = "C#C[C@]1(O)CC[C@H]2[C@@H]3CCC4=C/C(=N/NC(=O)c5cccc6cc7ccccc7nc56)CC[C@@H]4[C@H]3CC[C@@]21CC"
measured_value = "84.7 µM (inactive)"

[[record]]
compound = "CCCCCCCCOC(CO)CO"
measured_value = "> 100 µM (inactive)"

[[record]]
compound = "O=C1N[C@@H]2c3c(csc3Br)C(=O)[C@@H]2O1"
measured_value = "37.3 µM (inactive)"

[[record]]
compound = "O=C(NNc1ccc([N+](=O)[O-])cc1[N+](=O)[O-])/C(O)=C\\C(=O)c1ccccc1"
measured_value = "14.3 µM (inactive)"

[[record]]
compound = "Cc1cccc(C(C)(C)C)c1NC(=O)CCc1nnc(S)[nH]1"
measured_value = "> 100 µM (inactive)"

[[record]]
compound = "Cc1cc(Cl)cc2c1NC(=O)C2(O)C(C)C(=O)c1ccc(Cl)cc1 (stereo unspecified)"
measured_value = "> 100 µM (inactive)"

[[record]]
compound = "COC(=O)C1(C(=O)OC)C/C(C)=C(/C)SCCCS1"
measured_value = "> 100 µM (inactive)"

[[record]]
compound = "Cc1cccc(C)c1NC(=O)C(=O)CC(=O)/C=C/c1ccccc1"
measured_value = "> 100 µM (inactive)"

[[record]]
compound = "COC(=O)[C@@]1(C)CCC[C@]2(C(=O)O)C3Cc4occc4[C@H](C)[C@@H]3CCC21 (stereo partly specified)"
measured_value = "76.4 µM (inactive)"

[[record]]
compound = "CCOC(=O)c1c(Nc2ccccc2)sc2cccnc12"
measured_value = "4.49 µM (inactive)"

[[record]]
compound = "N=C(N)NS(=O)(=O)c1ccc(Nc2c3ccccc3nc3c(C(=O)N4CCN(CCO)CC4)cccc23)cc1"
measured_value = "> 100 µM (inactive)"

[[record]]
compound = "COC(=O)C(COC(C)=O)NC(=O)/C=C/c1ccc(O)c(OC(C)=O)c1 (stereo unspecified)"
measured_value = "> 100 µM (inactive)"

[[record]]
compound = "C=C(C)C1CC=C(C)[C@](O)(C2(O)C[C@H](C(=C)C)CC=C2C)C1 (stereo partly specified)"
measured_value = "> 100 µM (inactive)"

[[record]]
compound = "CCOC(=O)c1ccc(-n2cnc(-c3ccc([N+](=O)[O-])cc3)c2)cc1"
measured_value = "> 100 µM (inactive)"

[[record]]
compound = "CS(=O)(=O)c1nc(-c2cc3c(c(S(C)(=O)=O)n2)CCCC3)cc2c1CCCCC2"
measured_value = "> 100 µM (inactive)"

[[record]]
compound = "N#CC(C#N)=Cc1ccc(C(O)P(=O)(O)O)cc1 (stereo unspecified)"
measured_value = "> 100 µM (inactive)"


Just for reference, ChEMBL document CHEMBL1201862 is where these values come from.
